- experiment_notes: BET inhibitor-based combinations targeting novel dependencies in MECOM-rearranged (r) AML: AML-194 cell line (AID 2202237; further: nearly all actives have a fitted effect of over 40% in size)
- condition_label: AML-194 (MECOM-r AML) viability, CellTiter-Glo, 48 h; series mostly up to 46 µM
Records with an inconclusive call do not appear. Active and inactive are the calls of the source. The call rests on the fitted dose curve; in most records, active means well fitted inhibition curve with a large enough effect; inconclusive means small, poorly fitted or top-dose-only effect; inactive means flat fitted curve, though single readings scatter.
Outcome codes: 1.0 for active, 0.0 for inactive

[
  {
    "query_smiles": "C[C@H](c1ccc(F)cc1CCCC(=O)O)N(c1cc(F)ccc1F)S(=O)(=O)c1ccc(Cl)cc1",
    "class_name": 0.0
  },
  {
    "query_smiles": "O=C(CCCCCCC(=O)Nc1cccnc1)NO",
    "class_name": 1.0
  },
  {
    "query_smiles": "Cn1cnc([N+](=O)[O-])c1Sc1ncnc2nc[nH]c12",
    "class_name": 1.0
  },
  {
    "query_smiles": "Nc1nc(=O)n([C@H]2C[C@H](O)[C@@H](CO)O2)cc1F",
    "class_name": 1.0
  },
  {
    "query_smiles": "O=C(Nc1nnc(-c2ccco2)o1)c1cc(-c2ccccc2)nc2ccccc12",
    "class_name": 1.0
  },
  {
    "query_smiles": "O=C(O)CCc1ccc(NCc2cccc(Oc3ccccc3)c2)cc1",
    "class_name": 0.0
  },
  {
    "query_smiles": "CCCC(CCC)C(=O)Nc1ccn([C@@H]2O[C@H](CO)[C@@H](O)C2(F)F)c(=O)n1",
    "class_name": 1.0
  },
  {
    "query_smiles": "Cc1nc(-c2cccnc2)sc1C(=O)Nc1ccccc1-c1cn2c(CN3CCOCC3)csc2n1",
    "class_name": 0.0
  },
  {
    "query_smiles": "CC(C)=CC[C@@H](O)C1=CC(=O)c2c(O)ccc(O)c2C1=O",
    "class_name": 1.0
  },
  {
    "query_smiles": "O=C(Nc1ccc(Oc2ccnc3[nH]ccc23)c(F)c1)c1cccn(-c2ccc(F)cc2)c1=O",
    "class_name": 1.0
  }
]

###

- experimental_system: Cellular tumor antigen p53 (Homo sapiens) (UniProt P04637)
- Sequence (P04637 whole entry, looked up): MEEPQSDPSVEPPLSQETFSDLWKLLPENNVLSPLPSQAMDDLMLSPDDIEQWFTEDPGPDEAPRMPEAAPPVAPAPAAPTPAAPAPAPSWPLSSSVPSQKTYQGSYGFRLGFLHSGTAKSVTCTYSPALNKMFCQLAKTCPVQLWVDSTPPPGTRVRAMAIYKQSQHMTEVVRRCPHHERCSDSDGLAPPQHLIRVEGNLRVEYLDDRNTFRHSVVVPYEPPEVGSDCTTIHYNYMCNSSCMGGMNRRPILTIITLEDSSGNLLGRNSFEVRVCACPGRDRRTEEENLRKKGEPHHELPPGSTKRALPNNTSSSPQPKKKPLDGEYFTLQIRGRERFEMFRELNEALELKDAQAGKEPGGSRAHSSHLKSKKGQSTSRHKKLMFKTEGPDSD
- experiment_notes: Primary qHTS for small molecule compounds that upregulate eGFP-tagged delta133p53alpha (in N-terminal) cells. (AID 2060322);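 further: cells pre-induced with doxycycline then dosed without doxycycline; 0% = DMSO vehicle and 100% = reference activator; nearly all actives have a fitted effect of over 75% in size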
- condition_label: NCI-H358 eGFP-delta133p53alpha fluorescence, 24 h; stronger effect = higher value
- Excerpt: Assay Development and Screening Technology National Center for Advancing Translational Sciences (NCATS), National Institute of Health (NIH), Rockville, Maryland Cellular senescence (CS) is one of the hallmarks of aging and age-related diseases. […] Here we report the development and validation of a cell-based quantitative high throughput screening (qHTS) assay in 1,536-well format. […]
Results filed as inconclusive are left out.
assay_metric: activation (%)

[
  {
    "compound": "Cc1nn(Cc2ccccc2Cl)c(C)c1CN(C)CC(O)COc1ccc(Cl)cc1 (stereo not given)",
    "observed_value": 32.2
  },
  {
    "compound": "O=C1C(Cc2ccc(O)cc2)N2C(=O)CCN(C(=O)NCc3ccccc3)C2CN1Cc1cccc2ccccc12 (stereo not given)",
    "observed_value": 19.6
  },
  {
    "compound": "CC(=O)OC[C@@]12[C@@H](OC(C)=O)C[C@@H](C)[C@](C)([C@@H]3C[C@H]4C=CO[C@H]4O3)[C@H]1CCC[C@]21CO1",
    "observed_value": 0
  },
  {
    "compound": "CC(C)CNCc1ccc(-c2ccccc2S(=O)(=O)N2CCCC2)cc1",
    "observed_value": 11.7
  },
  {
    "compound": "C[C@@H](O)[C@H]1C(=O)N2C(C(=O)O)=C(S[C@@H]3CN[C@H](C(=O)N(C)C)C3)[C@H](C)[C@H]12",
    "observed_value": 7.34
  },
  {
    "compound": "CCOCc1cc(OC)c(-c2ccc(C[C@H](NC(=O)c3c(F)cccc3F)C(=O)O)cc2)c(OC)c1",
    "observed_value": -5.67
  },
  {
    "compound": "CN(C)CCC(c1ccc(Cl)cc1)c1ccccn1 (stereo not given)",
    "observed_value": -24.5
  },
  {
    "compound": "COCCOCC(OC)OC",
    "observed_value": -6.69
  },
  {
    "compound": "CCOC(=O)c1cccnc1",
    "observed_value": -9.6
  },
  {
    "compound": "Nc1nc2c(s1)CCN(Cc1ccc(Cl)cc1)CC2",
    "observed_value": 19.1
  }
]
